experiment: soluble on expression in E. coli; label from the status in PepcDB or PDB records

CHAIN_SEQUENCE: MAHHHHHHMPNSVDCDFLNAPAHPPCNNRISASSRSRDGASIRNIGSISNIGARNRGARNCDQVIHTVYVKYFEMERYLGNINYNMDYFNPVLNHPTKIEHGKIKILILDAPTNDLLPLYIKEMKNYNVTDLVRTCERTYNDGEITSAGINVHELIFPDGDAPTVDIVSNWLTIVNNVIKNNRAVAVHCVAGLGRAPVLASIVLIEFGMDPIDAIVFIRDRRKGAINKRQLQFLKAYKKKKKKKNCLRKCHFM
soluble on expression in E. coli: not soluble

CHAIN_SEQUENCE: KDADHIHHLIDQSLIAKGFQEILTNSLTKGAYNELLSKQEDAVPILNKLSEELAFMRPSLAFTGLETVAYNINRRQKNLKLFEWGKVYFKRGTKYNEYNRLSVFITGNQHAESWNTPSKTVDFFDMKAVVVQILEKLHIAVTQVQEIESNPLFSKGVIYKHAGKELVQFGYISQAALKATDVKQEVLFADFNADLLLELYSNKSKYKEIS
soluble on expression in E. coli: not soluble

CHAIN_SEQUENCE: MHHHHHHMGIVTGPIIDHSKENDVMNEAEQNAETVRRGYAAFNSGDMKTLTELFDENASWHTPGRSRIAGDHKGREAIFAQFGRYGGETGGTFKAVLLHVLKSDDGRVIGIHRNTAERGGKRLDVGCCIVFEFKNGRVIDGREHFYDLYAWDEFWR
soluble on expression in E. coli: soluble

CHAIN_SEQUENCE: MGSDKIHHHHHHMVDEILKLKKEKGYIILAHNYQIPELQDIADFVGDSLQLARKAMELSEKKILFLGVDFMAELVKILNPDKKVIVPDRSATCPMANRLTPEIIREYREKFPDAPVVLYVNSTSECKTLADVICTSANAVEVVKKLDSSVVIFGPDRNLGEYVAEKTGKKVITIPENGHCPVHQFNAESIDAVRKKYPDAKVIVHPECPKPVRDKADYVGSTGQMEKIPEKDPSRIFVIGTEIGMIHKLKKKFPDREFVPLEMAVCVNMKKNTLENTLHALQTESFEVILPKEVIEKAKKPILRMFELMG
soluble on expression in E. coli: not soluble

CHAIN_SEQUENCE: QVINTFDGVADYLQTYHKLPDNYITKSEAQALGWVASKGNLADVAPGKSIGGDIFSNREGKLPGKSGRTWREADINYTSGFRNSDRILYSSDWLIYKTTDAYQTFTKIRSSSMGVCPKILKKCRRDSDCLAGCVCGPNGFCGS
soluble on expression in E. coli: soluble

CHAIN_SEQUENCE: MSLAAGKHTKHSNRVRIIGGQCRGRKLSFTSADGLRPTPDSVREKLFNWLGQDLTGKTVLDLFGGSGALGIEAASRNAKRVLISDNNRQTVQTLQKNSRELGLGQVQIVFSDGIAYLKTVSEQFDVVFLDPPFAWQDWQILFDALKPCLNPRAFVYLEAGTLPNIPDWLTEYREGKSGQSTFELRVFQVAEEGHHHHHH
soluble on expression in E. coli: soluble

CHAIN_SEQUENCE: MSSASELMRCSGRWTLFRRTLPRLRKCVGVGETSGREKPPNSPNSSTLPMMTKTELSPPQIHINFIFFLPKNVFILKNCSL
soluble on expression in E. coli: not soluble
